The reader will find reported cell viability values listed item by item below.
# Test system: SW480
# METHOD: cell viability (CellTiter-Glo) relative to plate median (fraction of plate median); higher = more viable cells
# ASSAY SETUP: 5 µM; treatment time 24 h; reporter: 7TFP
READOUT TYPE: cell viability

• CC(=O)N[C@@H](Cc1c[nH]c2ccccc12)C(=O)O = 0.985
• C=CC(C1=CC(=O)C(OC)=CC1=O)c1ccc(O)cc1 (centres undefined) = 1.02
• COc1c2occc2c(OC)c2c(=O)cc(C)oc12 = 0.989
• C/C=C1\[C@H]2C=C(C)C[C@]1(N)c1ccc(=O)[nH]c1C2 = 1.02
